System: SK-MEL-5 melanoma
Method summary: NCI tumour cell line growth inhibition, 48 h
Could you label it met if measured TGI is 40 µM or higher, and not met otherwise?

# check: TGI of O=C1NC(=O)C(CC(C(=O)C(=O)Nc2ccccc2Cl)C(=O)c2ccc3ccccc3c2)C(=O)N1 (stereo not given) is greater than or equal to 40 µM
met

# check: TGI of c1ccc2c(c1)sc1c3cnccc3ccc21 is greater than or equal to 40 µM
met

# check: TGI of CN(CCCCCl)P(=O)(OCc1ccc([N+](=O)[O-])o1)OCC1OC(n2ccc(N)nc2=O)C(F)(F)C1O (stereo not given) is greater than or equal to 40 µM
met

# check: TGI of c1ccc2c(c1)Nc1ccccc1[P+]21c2ccccc2Nc2ccccc21 is greater than or equal to 40 µM
not met

# check: TGI of O=c1[nH]c2ccc(Cl)cc2c2oc(-c3ccccc3)nc12 is greater than or equal to 40 µM
met

# check: TGI of COc1ccc(/C=C2\C(=O)N(C)C(=O)c3cc(OC)c(OC)cc32)cc1OC is greater than or equal to 40 µM
met

# check: TGI of CS(=O)(=O)OCC1OC(n2ccc(NC(=O)c3ccccc3)nc2=O)CC1OS(C)(=O)=O (stereo not given) is greater than or equal to 40 µM
met

# check: TGI of N#Cc1c2c(c(Nc3cccc(C(F)(F)F)c3)n3c1nc1ccccc13)CCC2 is greater than or equal to 40 µM
met

# check: TGI of O=Cc1cc([N+](=O)[O-])no1 is greater than or equal to 40 µM
not met
